We begin with a simple list: items and their reported recombinant UMI read abundance (log10).
- EXPERIMENT NOTES: recombinant UMI read abundance after kanamycin selection (control-corrected) (log10(CPM+1)); higher = more efficient recombination; extreme values may be limits of the assay; sequences stand for … in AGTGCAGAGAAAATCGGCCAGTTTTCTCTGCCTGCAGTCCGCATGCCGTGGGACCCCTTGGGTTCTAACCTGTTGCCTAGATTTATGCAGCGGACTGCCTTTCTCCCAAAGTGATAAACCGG…AGGTTGGTTTCACT; site = the 11-nt donor
Give the figure by itself; no unit, no explanation.

CCAGATGCATGGACCGGTTTTCCCGGTAATCCGTATTTGAT (site CCAGTTGCTAT) :: 0.00471
TAGGCTTCATGGACCGGTTTTCCCGGTAATCCGTATTTGGT (site TAGTCTTCTAC) :: 0.0132

INPUT: Using the record for ACATACGCATGGACCGGTTTTCCCGGTAATCCGTATTTGGC (site ACATACGCTGC) , report its recombinant UMI read abundance (log10).
OUTPUT: 2.78

====

- EXPERIMENT NOTES: recombinant UMI read abundance after kanamycin selection (control-corrected) (log10(CPM+1)); higher = more efficient recombination; extreme values may be limits of the assay; sequences stand for … in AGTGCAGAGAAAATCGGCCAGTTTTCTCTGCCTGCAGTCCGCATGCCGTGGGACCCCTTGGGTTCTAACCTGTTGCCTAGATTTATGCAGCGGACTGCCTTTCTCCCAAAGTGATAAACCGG…AGGTTGGTTTCACT; site = the 11-nt donor
Label Satisfied when recombinant UMI read abundance (log10) is at or above 0.01; otherwise label Not satisfied.

Solved cases below.
TTGGAATCATGGACCGGTTTTCCCGGTAATCCGTATTTGCG (site TGGGAATCTCG) :: Not satisfied
AGAAGTCCATGGACCGGTTTTCCCGGTAATCCGTATTTGAA (site AGAAGTCCTTT) :: Satisfied
GGAACGTCATGGACCGGTTTTCCCGGTAATCCGTATTTGTT (site GGGACGTCTAA) :: Satisfied
TGAACACCATGGACCGGTTTTCCCGGTAATCCGTATTTGAC (site TGTACACCTGT) :: Not satisfied
GAAAGGCCATGGACCGGTTTTCCCGGTAATCCGTATTTGCA (site GAATGGCCTTG) :: Not satisfied

INPUT: Determine whether this sequence has recombinant UMI read abundance (log10) no lower than 0.01: GCAGTATCATGGACCGGTTTTCCCGGTAATCCGTATTTGCA (site ACAGTATCTTG)
OUTPUT: Satisfied

INPUT: Cool, now ACTGAGACATGGACCGGTTTTCCCGGTAATCCGTATTTGGT (site AATGAGACTAC)
OUTPUT: Satisfied

INPUT: Cool, now AATTATTCATGGACCGGTTTTCCCGGTAATCCGTATTTGGA (site AATTATACTTC)
OUTPUT: Satisfied

INPUT: Cool, now CGAGGTCCATGGACCGGTTTTCCCGGTAATCCGTATTTGGG (site CGAGGTCCTCC)
OUTPUT: Satisfied

====

We begin with a simple list: items and their reported recombinant barcode read abundance (log10).
- EXPERIMENT NOTES: recombinant barcode read abundance after kanamycin selection (control-corrected) (log10(CPM+1)); higher = more efficient recombination; sequences stand for … in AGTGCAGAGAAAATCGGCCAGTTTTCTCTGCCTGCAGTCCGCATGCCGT…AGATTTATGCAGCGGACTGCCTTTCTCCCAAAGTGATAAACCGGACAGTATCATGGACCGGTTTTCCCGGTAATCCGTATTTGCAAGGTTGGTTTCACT; site = the 11-nt target
Give the figure by itself; no unit, no explanation.

Answered examples (9):
GGCACAACTTGGGTTCTAACCTGTTGCCT (site GGCACAACTAG) :: 0.804
GCCGCGACTTGGGTTCTAACCTGTTGCCT (site GCCGCGACTAG) :: 0.236
AACAGTGCTTGGGTTCTAACCTGTTGCCT (site AACACTGCTAG) :: 0.219
CGAATCTCTTGGGTTCTAACCTGTTGCCT (site CGAATCTCTAG) :: 0.616
AAGCGTTCTTGGGTTCTAACCTGTTGCCT (site AAGCGTCCTAG) :: 0.111
GTGTTGCCTTGGGTTCTAACCTGTTGCCT (site GGGTTGCCTAG) :: 0.0383
CGTCTCCCTTGGGTTCTAACCTGTTGCCT (site CGTCTCCCTAG) :: 0.451
GGGGCGTCTTGGGTTCTAACCTGTTGCTT (site GGGGCTTCTAA) :: 0.0767
AGTGTCGCTTGGGTTCTAACCTGTTGCGG (site AGTATCGCTCC) :: 0.96

Okay, now this sequence:
INPUT: Using the record for TTGTGAGCTTGGGTTCTAACCTGTTGCCA (site ACAGTTACTAT) , report its recombinant barcode read abundance (log10).
OUTPUT: 0.0715

====

- EXPERIMENT NOTES: recombinant barcode read abundance after kanamycin selection (control-corrected) (log10(CPM+1)); higher = more efficient recombination; sequences stand for … in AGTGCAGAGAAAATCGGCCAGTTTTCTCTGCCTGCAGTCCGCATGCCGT…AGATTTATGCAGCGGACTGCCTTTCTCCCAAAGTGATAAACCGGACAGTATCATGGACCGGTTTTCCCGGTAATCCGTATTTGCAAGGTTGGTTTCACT; site = the 11-nt target
We begin with a simple list: items and their reported recombinant barcode read abundance (log10).
Give the figure by itself; no unit, no explanation.

Answered examples (6):
GTACGTCCTTGGGTTCTAACCTGTTGCTT (site GTACGTCCTAG) :: 0.299
GTAAGGACTTGGGTTCTAACCTGTTGCTT (site GTAAGAACTAA) :: 0.738
GTGAACCCTTGGGTTCTAACCTGTTGCAG (site GTGATCCCTCT) :: 0.0104
GTTTCTACTTGGGTTCTAACCTGTTGCTA (site GTTTCTACTTA) :: 0.0482
CCAAGCTCTTGGGTTCTAACCTGTTGCCT (site CCAAGCCCTAG) :: 0.177
GAGTTCCCTTGGGTTCTAACCTGTTGCGT (site GAGTTGCCTAC) :: 0.23

INPUT: Using the record for GACATTCCTTGGGTTCTAACCTGTTGCTT (site GACATTCCTAA) , report its recombinant barcode read abundance (log10).
OUTPUT: 0.21

INPUT: Cool, now CTTAAATCTTGGGTTCTAACCTGTTGCCT (site CTTTAATCTAG)
OUTPUT: 0.165

INPUT: Cool, now AGGCGTACTTGGGTTCTAACCTGTTGCCT (site AGACGTACTAG)
OUTPUT: 0.0558

INPUT: Cool, now TTCTAGACTTGGGTTCTAACCTGTTGCGG (site TCCTAGACTCC)
OUTPUT: 0.189

====

- EXPERIMENT NOTES: recombinant UMI read abundance after kanamycin selection (control-corrected) (log10(CPM+1)); higher = more efficient recombination; extreme values may be limits of the assay; sequences stand for … in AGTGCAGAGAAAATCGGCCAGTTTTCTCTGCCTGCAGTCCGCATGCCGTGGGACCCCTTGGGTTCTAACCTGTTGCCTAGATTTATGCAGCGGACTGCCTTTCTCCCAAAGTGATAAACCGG…AGGTTGGTTTCACT; site = the 11-nt donor
Label Met when recombinant UMI read abundance (log10) is at or above 0.01; otherwise label Not met.

GGTTCGCCATGGACCGGTTTTCCCGGTAATCCGTATTTGCG (site GGTTCGCCTCG) :: Not met
TCGGAACCATGGACCGGTTTTCCCGGTAATCCGTATTTGTA (site TCGGAACCTTA) :: Not met
ACACGAGCATGGACCGGTTTTCCCGGTAATCCGTATTTGTC (site ACACGAACTGA) :: Met

INPUT: Determine whether this sequence has recombinant UMI read abundance (log10) no lower than 0.01: CGTTCATCATGGACCGGTTTTCCCGGTAATCCGTATTTGCT (site CGCTCATCTAG)
OUTPUT: Met

INPUT: Cool, now AGTTAGACATGGACCGGTTTTCCCGGTAATCCGTATTTGAG (site TGTTAGACTCT)
OUTPUT: Met

INPUT: Cool, now GTGTGCACATGGACCGGTTTTCCCGGTAATCCGTATTTGTA (site GTGTGCACTTA)
OUTPUT: Met

INPUT: Cool, now AGGATCTCATGGACCGGTTTTCCCGGTAATCCGTATTTGTG (site AGGATCTCTCA)
OUTPUT: Met

INPUT: Cool, now ACAGTAGCATGGACCGGTTTTCCCGGTAATCCGTATTTGCA (site ACAGTAGCTTG)
OUTPUT: Met

INPUT: Cool, now GTGGAGGCATGGACCGGTTTTCCCGGTAATCCGTATTTGTA (site GTGGAGGCTGA)
OUTPUT: Met

INPUT: Cool, now TACTTCACATGGACCGGTTTTCCCGGTAATCCGTATTTGCT (site TACTTGACTAG)
OUTPUT: Met

INPUT: Cool, now GCTTGACCATGGACCGGTTTTCCCGGTAATCCGTATTTGAT (site GCTTGTCCTAT)
OUTPUT: Not met

INPUT: Cool, now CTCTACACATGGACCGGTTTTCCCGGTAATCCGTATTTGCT (site CTCTACACTAG)
OUTPUT: Met

INPUT: Cool, now TCTACACCATGGACCGGTTTTCCCGGTAATCCGTATTTGAC (site TCTACACCTGT)
OUTPUT: Not met

INPUT: Cool, now CGTCATGCATGGACCGGTTTTCCCGGTAATCCGTATTTGAC (site CGTCATGCTGT)
OUTPUT: Met

INPUT: Cool, now GTACTACCATGGACCGGTTTTCCCGGTAATCCGTATTTGTG (site GTACTACCTCA)
OUTPUT: Not met

INPUT: Cool, now CAGTTATCATGGACCGGTTTTCCCGGTAATCCGTATTTGTG (site CAGTTATCTCA)
OUTPUT: Met

INPUT: Cool, now GGTCCACCATGGACCGGTTTTCCCGGTAATCCGTATTTGTA (site GGTCCAGCTTA)
OUTPUT: Met

INPUT: Cool, now CGCAATCCATGGACCGGTTTTCCCGGTAATCCGTATTTGAA (site AGCAATCCTTT)
OUTPUT: Met

Just for reference, the supplement of paper PMC11208160 is where these values come from.
